Items are presented alongside their recorded Kd.
Target: Fc-fusion protein of human PSMA (hPSMA-Fc) (Homo sapiens, UniProt Q04609)
Construct: purchased Acro Biosystems PSA-H5264
Sequence (Q04609 44-750 limits assumed): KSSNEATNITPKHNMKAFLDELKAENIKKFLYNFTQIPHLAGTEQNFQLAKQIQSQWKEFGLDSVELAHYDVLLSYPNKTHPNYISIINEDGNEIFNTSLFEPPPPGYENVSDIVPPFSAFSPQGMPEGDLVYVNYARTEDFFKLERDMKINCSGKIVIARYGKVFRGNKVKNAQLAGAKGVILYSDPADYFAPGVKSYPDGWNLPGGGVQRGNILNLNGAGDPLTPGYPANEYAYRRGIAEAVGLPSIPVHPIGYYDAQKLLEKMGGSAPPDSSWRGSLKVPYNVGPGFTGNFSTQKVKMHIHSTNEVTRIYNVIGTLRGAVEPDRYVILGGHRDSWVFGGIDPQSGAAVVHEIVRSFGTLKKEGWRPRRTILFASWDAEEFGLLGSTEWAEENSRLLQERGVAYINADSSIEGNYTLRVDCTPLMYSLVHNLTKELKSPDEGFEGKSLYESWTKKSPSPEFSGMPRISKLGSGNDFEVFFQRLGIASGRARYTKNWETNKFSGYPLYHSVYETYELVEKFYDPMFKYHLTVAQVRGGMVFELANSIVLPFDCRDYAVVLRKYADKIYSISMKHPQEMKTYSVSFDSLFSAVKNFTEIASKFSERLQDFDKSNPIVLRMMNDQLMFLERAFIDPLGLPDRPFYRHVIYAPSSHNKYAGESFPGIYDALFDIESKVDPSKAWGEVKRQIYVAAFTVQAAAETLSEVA
Experiment: Surface plasmon resonance assay (Biacore T200, single cycle kinetic)
Assay type: binding
Settings: SPR, hPSMA-Fc, single cycle kinetic, 25° C.; category; read-out: pKD CAT (converted)
Numbered stars: 1 amine (or outer) side, 2 acyl side, 3 side chain; on linkers, the order of the positions; unused ones are H or OH. Bridge positions count the residues as written; N and C are the ends. Square brackets hold non-standard residues; d marks the D form. Peptide text beside a SMILES is read from it. * marks the point of attachment. TtdsdLys(DOTA)NH2 = NC(=O)[C@@H](CCCCNC(=O)CN1CCN(CC(=O)O)CCN(CC(=O)O)CCN(CC(=O)O)CC1)NC(=O)CCC(=O)NCCCOCCOCCOCCCN*; DOTA = O=C(O)CN1CCN(CC(=O)O)CCN(CC(=O)*)CCN(CC(=O)O)CC1; Ethylenediamine = C(CN[*:2])N[*:1]; X1 = O=C(CC1CCN([*:1])CC1)[*:2]; Tle = CC(C)(C)[C@H](N)C(=O)O; Aib = CC(C)(N)C(=O)O
assayMetric: Kd

INSERT INTO results (compound, assaymetric, result) VALUES
  ('C[C@@H](O)[C@H](NC(=O)CC1CCN(C(=O)CN2CCN(CC(=O)O)CCN(CC(=O)O)CCN(CC(=O)O)CC2)CC1)C(=O)NC(C)(C)C(=O)N[C@@H](Cc1ccccc1)C(=O)N[C@H]1CSSC[C@@H](C(=O)N[C@H](C(=O)NCCN)C(C)(C)C)NC(=O)[C@H](CC(N)=O)NC(=O)C(C)(C)NC(=O)[C@H](CCCNC(=N)N)NC(=O)[C@H](CCCCN)NC1=O [PSM-0241] ({DOTA}-[X1]T[Aib]FCKR[Aib]NC[Tle]-Ethylenediamine; disulfide 5-10)', 'Kd', '< 12.6 nM'),
  ('CC(=O)N[C@H](C(=O)N[C@@H](C)C(=O)N[C@@H](Cc1ccccc1)C(=O)N[C@H]1CSSC[C@@H](C(=O)N[C@H](C(=O)N[C@H](C(=O)N[C@@H](CC(=O)O)C(=O)NCCCOCCOCCOCCCNC(=O)CCC(=O)N[C@H](CCCCNC(=O)CN2CCN(CC(=O)O)CCN(CC(=O)O)CCN(CC(=O)O)CC2)C(N)=O)[C@@H](C)O)C(C)(C)C)NC(=O)[C@H](CC(N)=O)NC(=O)[C@H](C)NC(=O)[C@H](CCCNC(=N)N)NC(=O)[C@H](CCCCN)NC1=O)[C@@H](C)O [PSM-0266] (Ac-TAFCKRANC[Tle]TD-{TtdsdLys(DOTA)NH2}; disulfide 4-9)', 'Kd', '12.6 to 126 nM');
